These entries and their values trace back to ChEMBL document CHEMBL1130046.

# test_system: Translocator protein (Rattus norvegicus)
# Sequence (P16257 whole entry, looked up): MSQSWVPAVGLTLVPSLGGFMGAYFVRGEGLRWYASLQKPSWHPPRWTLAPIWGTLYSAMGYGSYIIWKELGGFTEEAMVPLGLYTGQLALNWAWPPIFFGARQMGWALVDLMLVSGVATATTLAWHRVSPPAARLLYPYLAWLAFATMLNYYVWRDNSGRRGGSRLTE
# assay_details: Binding affinity for PBR (peripheral benzodiazepine receptor) in rat C6 glioma cells
# Assay type: cell-based
quantity_name: IC50 (µM)

| smiles_str | observed |
| --- | --- |
| CCOC(=O)[C@@H](Cc1ccc(N(CCCl)CCCl)cc1)NC(=O)CCCN1C(=O)CN=C(c2ccccc2)c2cc(Cl)ccc21 | 289 |
